The reported numbers originate from patent US20220048991A1.

# study target: T1, recombinant ILT2 (human) (human, UniProt Q8NHL6 24-461)
# T1 construct: also called recombinant ILT2 peptide; ILT2 protein
# T1 sequence (Q8NHL6 24-461 limits assumed): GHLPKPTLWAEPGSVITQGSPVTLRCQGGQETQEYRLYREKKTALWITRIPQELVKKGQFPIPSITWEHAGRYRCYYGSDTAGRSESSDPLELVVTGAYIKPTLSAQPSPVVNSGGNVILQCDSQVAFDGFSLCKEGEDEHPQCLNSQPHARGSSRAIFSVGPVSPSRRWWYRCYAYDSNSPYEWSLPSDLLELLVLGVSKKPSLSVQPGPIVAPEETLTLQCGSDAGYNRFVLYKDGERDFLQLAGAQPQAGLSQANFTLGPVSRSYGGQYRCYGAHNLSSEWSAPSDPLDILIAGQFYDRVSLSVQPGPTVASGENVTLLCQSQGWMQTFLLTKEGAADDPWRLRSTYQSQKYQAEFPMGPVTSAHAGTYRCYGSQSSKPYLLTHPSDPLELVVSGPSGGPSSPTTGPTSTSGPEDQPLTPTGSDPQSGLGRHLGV
# assay overview: SPR (Biacore T200), HEK EBNA supernatants on recombinant ILT2 peptide
measured property: kon
Please state the number and follow it with the unit.

Below, 2 binders whose answers are already recorded.
binder	kon
humanized 15G8 VH4/Vk3 (antibody, IgG4, V domains shown, Humanized IgG4 (S228P, L235E), kappa; tested as supernatant of transiently transfected HEK EBNA cells) VH: QVQLQGSGPGLVKPSETLSLTCSVTGYSITSGYYWNWIRQPPGKGLEWMGYISYDGSNNYNPSLKNRVTISRDTSKNQFSLKLSSVTAADTATYYCAHGYSYYYAMDAWGQGTTVTVSS VL: DIQMTQSPSSLSASVGDRVTITCRTSQDISNYLNWYQQKPGKAVKLLISYTSRLHSGVPSRFSGSGSGTDYTLTISSLQPEDFATYYCQQGNTLPTFGQGTKLEIK	886000 M⁻¹ s⁻¹
humanized 15G8 VH5/Vk1 (antibody, IgG4, V domains shown, Humanized IgG4 (S228P, L235E), kappa; tested as supernatant of transiently transfected HEK EBNA cells) VH: QVQLQGSGPGLVKPSETLSLTCTVTGYSITSGYYWNWIRQPPGKGLEWIGYISYDGSNNYNPSLKNRVTISRDTSKNQFSLKLSSVTAADTATYYCAHGYSYYYAMDAWGQGTTVTVSS VL: DIQMTQSTSSLSASVGDRVTITCRTSQDISNYLNWYQQKPGKAVKLLISYTSRLHSGVPSRFSGSGSGTDYTLTISSLQQEDFATYFCQQGNTLPTFGQGTKLEIK	1.16e+06 M⁻¹ s⁻¹

Q) # return recorded kon for input humanized 15G8 VH1/Vk4 (antibody, IgG4, V domains shown, Humanized IgG4 (S228P, L235E), kappa; tested as supernatant of transiently transfected HEK EBNA cells) VH: DVQLQGSGPGLVKPSETLSLTCSVTGYSITSGYYWNWIRQFPGKKLEWMGYISYDGSNNYNPSLKNRITISRDTSKNQFSLKLNSVTAADTATYYCAHGYSYYYAMDAWGQGTSVTVSS VL: DIQMTQSPSSLSASVGDRVTITCRTSQDISNYLNWYQQKPGKAPKLLISYTSRLHSGVPSRFSGSGSGTDYTLTISSLQPEDFATYFCQQGNTLPTFGQGTKLEIK
A) 457000 M⁻¹ s⁻¹
